Target: UBE2N; further: test concentration or dose not given here
Experiment: reporter assay of Huesken 2005
Conditions: siRNA
Oligonucleotides are given in HELM: sugar(base)linkage, 5' to 3'; d 2'-deoxyribose, r ribose, m 2'-O-methylribose, p phosphate. ss, as = sense and antisense strand
endpoint-label: normalised inhibition (eCFP-eYFP dual reporter) (%)
Give bare numbers, in %.

A selection of reference data follows.
RNA1{r(C)p.r(G)p.r(A)p.r(A)p.r(G)p.r(C)p.r(C)p.r(C)p.r(A)p.r(A)p.r(G)p.r(C)p.r(C)p.r(A)p.r(U)p.r(A)p.r(G)p.r(A)p.r(A)p.d(T)p.d(T)}|RNA2{r(U)p.r(U)p.r(C)p.r(U)p.r(A)p.r(U)p.r(G)p.r(G)p.r(C)p.r(U)p.r(U)p.r(G)p.r(G)p.r(G)p.r(C)p.r(U)p.r(U)p.r(C)p.r(G)p.d(T)p.d(T)}$$$RNA1{StrandType:ss}|RNA2{StrandType:as}$ = 84.1
RNA1{r(C)p.r(A)p.r(U)p.r(A)p.r(G)p.r(A)p.r(A)p.r(A)p.r(C)p.r(A)p.r(G)p.r(C)p.r(U)p.r(A)p.r(G)p.r(A)p.r(G)p.r(C)p.r(A)p.d(T)p.d(T)}|RNA2{r(U)p.r(G)p.r(C)p.r(U)p.r(C)p.r(U)p.r(A)p.r(G)p.r(C)p.r(U)p.r(G)p.r(U)p.r(U)p.r(U)p.r(C)p.r(U)p.r(A)p.r(U)p.r(G)p.d(G)p.d(C)}$$$RNA1{StrandType:ss}|RNA2{StrandType:as}$ = 95.3

Shift focus to the following entry.
Just so you know, measured normalised inhibition (eCFP-eYFP dual reporter) for `RNA1{r(C)p.r(A)p.r(A)p.r(A)p.r(U)p.r(G)p.r(A)p.r(U)p.r(G)p.r(U)p.r(A)p.r(G)p.r(C)p.r(G)p.r(G)p.r(A)p.r(G)p.r(C)p.r(A)p.d(T)p.d(T)}|RNA2{r(U)p.r(G)p.r(C)p.r(U)p.r(C)p.r(C)p.r(G)p.r(C)p.r(U)p.r(A)p.r(C)p.r(A)p.r(U)p.r(C)p.r(A)p.r(U)p.r(U)p.r(U)p.r(G)p.d(C)p.d(T)}$$$RNA1{StrandType:ss}|RNA2{StrandType:as}$` came out at 64.2
